Hi there, I'd appreciate the recorded inhibition at 1 µM for every entry that follows.
- Test system: RBL-2H3
- test_description: Antiallergic activity against anti-DNP-IgE sensitized rat RBL-2H3 cells assessed as […] of degranulation by measuring beta-hexosaminidase release using P-nitrophenyl-N-acetyl-D-glucosamide as substrate at 1 uM measured after 1 hr by microplate reader relative to control
- Assay type: functional

Dear colleague, I am looking for the recorded inhibition at 1 µM of the following molecule: COc1cc(NC(=O)c2cccc(C#Cc3cc(-c4cnn(C)c4)cnc3N)c2F)cc(OC)c1
33%

Dear colleague, I am looking for the recorded inhibition at 1 µM of the following molecule: Cc1ccc(C(=O)Nc2ccc(Cl)c(Cl)c2)cc1C#Cc1cc(-c2cnn(C)c2)cnc1N
65%

Dear colleague, I am looking for the recorded inhibition at 1 µM of the following molecule: Cc1ccc(C(=O)Nc2cccc(Cl)c2)cc1C#Cc1cc(-c2cnn(C)c2)cnc1N
118%

---

- test_target: Macrophage colony-stimulating factor 1 receptor (Homo sapiens, UniProt P07333)
- Sequence (P07333 whole entry): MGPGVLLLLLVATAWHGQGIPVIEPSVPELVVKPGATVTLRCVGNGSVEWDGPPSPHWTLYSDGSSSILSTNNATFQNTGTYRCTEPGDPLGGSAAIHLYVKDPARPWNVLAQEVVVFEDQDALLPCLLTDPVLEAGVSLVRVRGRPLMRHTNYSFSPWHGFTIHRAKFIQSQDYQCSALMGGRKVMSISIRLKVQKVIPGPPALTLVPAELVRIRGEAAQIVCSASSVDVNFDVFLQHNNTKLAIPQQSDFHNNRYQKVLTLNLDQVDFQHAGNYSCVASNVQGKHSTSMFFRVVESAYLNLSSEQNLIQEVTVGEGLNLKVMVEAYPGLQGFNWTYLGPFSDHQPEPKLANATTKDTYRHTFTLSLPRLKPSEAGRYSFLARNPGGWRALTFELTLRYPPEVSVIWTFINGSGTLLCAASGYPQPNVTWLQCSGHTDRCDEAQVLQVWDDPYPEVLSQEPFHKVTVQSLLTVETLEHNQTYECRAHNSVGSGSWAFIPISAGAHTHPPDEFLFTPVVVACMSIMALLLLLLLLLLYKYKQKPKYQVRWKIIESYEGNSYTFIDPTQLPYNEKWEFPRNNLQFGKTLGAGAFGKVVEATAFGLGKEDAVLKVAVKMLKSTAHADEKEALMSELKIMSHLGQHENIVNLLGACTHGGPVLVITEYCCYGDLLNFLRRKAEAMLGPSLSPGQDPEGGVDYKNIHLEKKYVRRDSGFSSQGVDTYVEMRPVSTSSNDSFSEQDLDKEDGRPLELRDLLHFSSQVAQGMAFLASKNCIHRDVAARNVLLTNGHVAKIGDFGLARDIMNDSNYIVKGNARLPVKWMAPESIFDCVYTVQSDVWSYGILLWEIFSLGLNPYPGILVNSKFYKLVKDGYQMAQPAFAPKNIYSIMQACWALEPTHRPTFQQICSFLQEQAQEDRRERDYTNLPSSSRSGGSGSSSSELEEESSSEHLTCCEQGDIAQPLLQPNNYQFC
- test_description: Inhibition of human recombinant CSF1R using ATP/Ulight-TK peptide incubated for 15 mins
recorded_endpoint: pIC50
Formally, pIC50 is defined as -log10 of the concentration c, with c in mol/L.

Write down the reported pIC50 of Cc1ccc(C(=O)Nc2ccc(Cl)c(C(F)(F)F)c2)cc1C#Cc1cc(-c2cnn(C)c2)cnc1N , test system: Macrophage colony-stimulating factor 1 receptor (Homo sapiens, UniProt P07333).
7.52

Write down the reported pIC50 of Cc1ccc(C(=O)Nc2ccc(OC(F)(F)F)cc2)cc1C#Cc1cc(-c2cnn(C)c2)cnc1N , test system: Macrophage colony-stimulating factor 1 receptor (Homo sapiens, UniProt P07333).
7.66

Write down the reported pIC50 of Cc1ccc(C(=O)Nc2cc(C(F)(F)F)cc(C(F)(F)F)c2)cc1C#Cc1cc(-c2cnn(C)c2)cnc1N , test system: Macrophage colony-stimulating factor 1 receptor (Homo sapiens, UniProt P07333).
7.32

Write down the reported pIC50 of Cc1ccc(C(=O)Nc2cccc(OC(F)(F)F)c2)cc1C#Cc1cc(-c2cnn(C)c2)cnc1N , test system: Macrophage colony-stimulating factor 1 receptor (Homo sapiens, UniProt P07333).
7.62

---

- Tested on: RBL-2H3
- test_description: Antiallergic activity against anti-DNP-IgE sensitized rat RBL-2H3 cells assessed as […] of degranulation by measuring beta-hexosaminidase release using P-nitrophenyl-N-acetyl-D-glucosamide as substrate at 0.2 uM measured after 1 hr by microplate reader relative to control
- Format: functional
Hi there, I'd appreciate the recorded inhibition at 0.2 µM for every entry that follows.
Report as a plain number; the unit % is understood.

Dear colleague, I am looking for the recorded inhibition at 0.2 µM of the following molecule: Cc1ccc(C(=O)Nc2cccc(OC(F)(F)F)c2)cc1C#Cc1cc(-c2cnn(C)c2)cnc1N
138

Dear colleague, I am looking for the recorded inhibition at 0.2 µM of the following molecule: Cc1ccc(C(=O)Nc2cccc(Cl)c2)cc1C#Cc1cc(-c2cnn(C)c2)cnc1N
82.9

Dear colleague, I am looking for the recorded inhibition at 0.2 µM of the following molecule: Cc1ccc(C(=O)Nc2ccc(C(F)(F)F)cc2)cc1C#Cc1cc(-c2cnn(C)c2)cnc1N
60.8

Dear colleague, I am looking for the recorded inhibition at 0.2 µM of the following molecule: Cc1ccc(C(=O)Nc2cccc(C(F)(F)F)c2)cc1C#Cc1cc(-c2cnn(C)c2)cnc1N
109

Dear colleague, I am looking for the recorded inhibition at 0.2 µM of the following molecule: COc1cc(NC(=O)c2cccc(C#Cc3cc(-c4cnn(C)c4)cnc3N)c2)cc(OC)c1
272

Dear colleague, I am looking for the recorded inhibition at 0.2 µM of the following molecule: COc1cc(NC(=O)c2cccc(C#Cc3cc(-c4cnn(C)c4)cnc3N)c2C)cc(OC)c1
8.75

Dear colleague, I am looking for the recorded inhibition at 0.2 µM of the following molecule: CNC(=O)c1cnc(N)c(C#Cc2cc(C(=O)Nc3cc(OC)cc(OC)c3)ccc2C)c1
26.8

Dear colleague, I am looking for the recorded inhibition at 0.2 µM of the following molecule: CCNc1ncc(-c2cnn(C)c2)cc1C#Cc1cc(C(=O)Nc2cc(OC)cc(OC)c2)ccc1C
45.3

Dear colleague, I am looking for the recorded inhibition at 0.2 µM of the following molecule: COc1ccc(NC(=O)c2ccc(C)c(C#Cc3cc(-c4cnn(C)c4)cnc3N)c2)cc1
66.9

Dear colleague, I am looking for the recorded inhibition at 0.2 µM of the following molecule: Cc1ccc(C(=O)Nc2ccccn2)cc1C#Cc1cc(-c2cnn(C)c2)cnc1N
21.1

Dear colleague, I am looking for the recorded inhibition at 0.2 µM of the following molecule: COc1cc(NC(=O)c2ccc(F)c(C#Cc3cc(-c4cnn(C)c4)cnc3N)c2)cc(OC)c1
0.83
